Protocol details: toxicity value: 50% inhibition of weight increase of test animal (Sarcoma 180 tumor-transplanted mice)
Assay type: in vivo, mouse
Study conditions: mouse, sarcoma 180 bearing mice; Table 1-c; oral, once a day, 7 days, male ICR/JCL mice; read-out: Toxicity value (B) Administration amount of test compound at which weight increase of test animal is inhibited by 50% compared with that of control group
Label Met when TD50 at 240 h is strictly below 40 mg/kg; otherwise label Not met.

Some solved cases for reference:
                                   molecule  label_class
0  O=c1[nH]c(=O)n([C@H]2C[C@H](O)[C@@H](COCc3ccccc3)O2)cc1F [Compound 41]          Met
1  O=c1[nH]c(=O)n([C@H]2C[C@H](O)[C@@H](CO)O2)cc1F [FudR, 2'-deoxy-5-fluorouridine]      Not met
2  CCOC[C@H]1O[C@@H](n2cc(F)c(=O)n(C(=O)c3ccccc3)c2=O)C[C@@H]1O [Compound 35]      Not met

Prompt: Here's an entry: O=c1[nH]c(=O)n([C@H]2C[C@H](OCc3ccccc3)[C@@H](CO)O2)cc1F [Compound 40, 2'-deoxy-3'-O-benzyl-5-fluorouridine] . Is its TD50 at 240 h below 40 mg/kg?
Response: Met

Prompt: Here's an entry: CCOC[C@H]1O[C@@H](n2cc(F)c(=O)[nH]c2=O)C[C@@H]1O [Compound 39] . Is its TD50 at 240 h below 40 mg/kg?
Response: Not met
